Target: HLA-B*48:01
Experiment: IEDB peptide-MHC binding, purified MHC/competitive/fluorescence; filed as Kd, often an IC50 or EC50 that approximates it; bounds were set here for any values at or beyond the usual limits of such assays
Settings: source organism: Vaccinia virus Copenhagen
measurement-name: Kd (nM)

> print(dat)
   seq.string  tested.target  measurement.name  unit.info  recorded.result
1   RHDITGFIL    HLA-B*48:01                Kd         nM              298

* * *

Target: HLA-B*45:01
Assay: IEDB peptide-MHC binding, purified MHC/competitive/radioactivity; filed as Kd, often an IC50 or EC50 that approximates it; bounds were set here for any values at or beyond the usual limits of such assays
Conditions: source organism: Mammarenavirus choriomeningitidis
measurement-name: Kd (µM)

> print(dat)
   seq.string  tested.target  measurement.name  recorded.result
1   AELLPDTTY    HLA-B*45:01                Kd             7.85

Entry source: the Immune Epitope Database (IEDB)
